study target: Influenza virus A/Brisbane/59/2007 (H1N1) (Influenza A virus A/Brisbane/59/2007 (H1N1))
experiment: cell-based or functional assay
result type: Neutralizing activity (%) at 100 µg/ml
Reply with just the number (in %).

Param item = Group 51 representative clone F083-302, Fab-PP-type antibody (Fab, V domains shown) VH: QVQLVQSGAEVKKPGSSVKVSCEASGATFSSNAFSWVRQAPGQGPEWMGGIITMFRKAEYAQKFQGRVTITAGELGSTAYMEVRSLTFEDTAVYYCARHSGYHLIGYFDSWGQGTLVTVSS VL: QSVLTQPPSVSAAPGQKVTISCSGTTSNIGNNYVSWYQQLPGAAPKLLIYDNNKRPSGIPDRFSGSKSDTSATLGITGLQTGDEADYYCGTWVSSLSVWVFGGGTKLTVLG ; retrieve measured Neutralizing activity (%) at 100 µg/ml.
98

Can you share its Neutralizing activity (%) at 100 µg/ml? I mean this binder: Group 36 representative clone F082-243, Fab-PP-type antibody (Fab, V domains shown) VH: QVQLQQSGAEVKKPGSSVKVSCKASGGIFRKNAISWVRQAPGQGLEWMGGIIAIFGTANYAQKFQGRVTITADDSTNTVYMELTSLRYEDTAVYYCARGPNYYENYFDFWGQGTLVTVSS VL: EIVLTQSPSSLSASLRDTVTITCRTSQAITNYLAWYQQRPGKAPKLLIYAASVLQSGVPSRFSGSGSGTDFTLTISSLQPEDFATYYCQKYDSAPYTFGQGTKLEIK
84.2

I am curious: what Neutralizing activity (%) at 100 µg/ml value has been reported for Group 54 representative clone F083-354, Fab-PP-type antibody (Fab, V domains shown) VH: QVQLVQSGSEVKKPGSSVKVSCKASGGIFNSYGISWVRQAPGQGLEWMGGILAIFGTTNYAQKFQGRVTITADDSSKTVYMELSSLTSEDTAVYYCARGSTYYSSYFDQWGQGTLVTVSS VL: DIQMTQSPSSLSASVGDRVTITCRASQGIRNSLAWYQQKPGQVPKLLIYSATTLRSGVPYRFSGSGSGTDFTLTISGLQPEDVGTYFCHRYDSAPLTFGGGTRVALK ?
96.1

Any idea what its Neutralizing activity (%) at 100 µg/ml is? The binder is Group 56 representative clone F083-318, Fab-PP-type antibody (Fab, V domains shown) VH: EVQLVQSGAEVKKPGSSVKVSCQASGSIFSNYAINWVRQAPGQGLEWMGGIVPIFGTTRFAQKFQGRLTITADEPRSTAYMELNNLISEDTAVYYCARAPLIYNWYYDLWGRGTLVTVSS VL: EIVLTQSPSSLSASVGDRVTITCRASQGISNYLAWYQQKPGKVPKLLIYAASTLQSGVPSRFSGSGSGTDFTLTISSLQPEDVATYYCQKYNSAPHTFGPGTKVDIK
84.2

Entry under review: Group 39 representative clone F082-237, Fab-PP-type antibody (Fab, V domains shown) VH: QVQLVQSGAEVKKPGSSVKVSCKASGGIFNKYGISWVRQAPGQGLEWMGGILAIFGTTNYAQKFQGRVTISADESSTTVYMELSSLTSEDTAVYYCARGNTYYSSYFDQWGQGTLVTVSS VL: QSVLTQPPSVSVAPGQTATITCGGDKIGTGPVHWYQQMPGRAPVLLIYASTHRPSRIPERFSGSKSDNTATLSISGVGVGDEADYYCQMWDSSSVHPIVFGGGTKLTVLS . Reported Neutralizing activity (%) at 100 µg/ml?
48.7
